biological target: Angiotensin-converting enzymes (ACE) from porcine kidneys (EC 3.4.15.1) (Sus scrofa); construct: Angiotensin-converting enzymes (ACE) from porcine kidneys (EC 3.4.15.1) were purchased from Sigma-Aldrich; purchased Sigma-Aldrich (St. Louis, MO, USA); host or cells: porcine kidneys (tissue-derived enzyme); test: biochemical; conditions: porcine kidney ACE, substrate Abz-Gly-Phe(NO2)-Pro, fluorescence after 30 min; mean ± SD; read-out: IC50 Value (ACE inhibitory activity)
Sequence (F1RRW5 34-1309): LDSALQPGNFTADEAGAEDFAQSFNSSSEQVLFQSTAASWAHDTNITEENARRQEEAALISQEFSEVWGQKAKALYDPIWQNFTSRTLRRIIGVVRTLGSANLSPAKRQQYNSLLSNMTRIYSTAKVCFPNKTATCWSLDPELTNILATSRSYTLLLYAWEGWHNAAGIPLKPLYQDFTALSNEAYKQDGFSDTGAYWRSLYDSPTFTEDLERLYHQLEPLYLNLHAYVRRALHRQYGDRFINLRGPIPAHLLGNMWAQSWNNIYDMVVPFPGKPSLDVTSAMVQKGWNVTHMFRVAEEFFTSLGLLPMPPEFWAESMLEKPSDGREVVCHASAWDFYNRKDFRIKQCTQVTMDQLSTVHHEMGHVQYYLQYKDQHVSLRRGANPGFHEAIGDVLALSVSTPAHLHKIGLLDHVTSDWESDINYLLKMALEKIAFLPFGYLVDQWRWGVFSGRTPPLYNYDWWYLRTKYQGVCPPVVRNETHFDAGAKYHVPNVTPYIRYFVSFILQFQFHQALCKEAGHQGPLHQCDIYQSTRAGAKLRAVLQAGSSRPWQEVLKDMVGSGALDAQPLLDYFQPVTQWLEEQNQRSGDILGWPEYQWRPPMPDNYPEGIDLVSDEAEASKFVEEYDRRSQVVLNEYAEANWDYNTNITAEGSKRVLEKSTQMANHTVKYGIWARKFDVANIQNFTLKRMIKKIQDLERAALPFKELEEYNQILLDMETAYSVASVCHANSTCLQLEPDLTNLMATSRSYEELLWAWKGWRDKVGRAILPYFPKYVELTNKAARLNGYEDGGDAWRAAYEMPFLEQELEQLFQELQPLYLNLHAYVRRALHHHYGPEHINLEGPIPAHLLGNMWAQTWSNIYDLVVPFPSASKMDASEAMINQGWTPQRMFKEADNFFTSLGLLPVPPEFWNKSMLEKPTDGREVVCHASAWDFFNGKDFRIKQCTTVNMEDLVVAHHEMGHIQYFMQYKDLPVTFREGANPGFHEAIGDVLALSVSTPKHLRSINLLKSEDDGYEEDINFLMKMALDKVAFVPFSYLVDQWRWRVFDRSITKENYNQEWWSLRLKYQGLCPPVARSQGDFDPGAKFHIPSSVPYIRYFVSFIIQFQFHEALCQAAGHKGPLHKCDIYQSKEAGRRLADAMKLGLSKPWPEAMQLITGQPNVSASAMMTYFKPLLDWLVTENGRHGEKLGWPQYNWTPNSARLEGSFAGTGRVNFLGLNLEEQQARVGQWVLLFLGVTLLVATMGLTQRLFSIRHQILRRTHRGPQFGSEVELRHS
pIC50: −log10 of the molar value.
quantity: pIC50

Answered examples (2):
compound	pIC50
O=C1C[C@@H](c2ccc(O)cc2)Oc2cc(O)cc(O)c21 [Naringenin]	3.41
OCC1OC(Oc2cc3c(O)cc(O)cc3[o+]c2-c2ccc(O)c(O)c2)C(O)C(O)C1O (stereo not shown) [Cyanidin-3-O-glucoside]	3.73

I: O=C(O)Cc1ccc(O)cc1 [4-HPAA, 4-hydroxyphenylacetic acid]
II: O=C(O)C=Cc1ccc(O)cc1 [p-Coumaric acid]
Incoming: Hi, I'm comparing two records. Which one has the lower pIC50, I or II ? Answer by stating the label of the chosen item.
Outgoing: I
